# Ratio listing for each entry below
ASSAY TARGET: UniProt:Q9XQA6
PROTOCOL SUMMARY: Resistant ratio, ratio of I50 for photosystem II in s-triazine-resistant Poa annua leaf thylakoid membrane to I50 for photosystem II in s-triazine-susceptible Poa annua leaf thylakoid membrane
# respond with the number and nothing more

COMPOUND	OBSERVED VALUE
O=c1[nH]c2c(c(=O)n1C1CCCCC1)CCC2	20
CN(C)C(=O)Nc1ccc(Cl)c(Cl)c1	3.1

Please examine the following record next.
Record request: Ratio value, item CCC(C)c1cc([N+](=O)[O-])cc([N+](=O)[O-])c1O (centres undefined) 0.1

* * *

# IC50 listing for each entry below
ASSAY TARGET: Photosystem Q(B) protein (Poa annua, UniProt Q9XQA6)
PROTOCOL SUMMARY: Inhibition of photosystem II in s-triazine-resistant Poa annua leaf thylakoid membrane assessed as reduction of photosynthetic electron transport
CONDITION SUMMARY: read-out: I50
Write it as a number; the unit µM goes unstated.

Study these solved cases before continuing.
COMPOUND	IC50 [µM]
O=c1[nH]c2c(c(=O)n1C1CCCCC1)CCC2	20
CN(C)C(=O)Nc1ccc(Cl)c(Cl)c1	0.4

Please examine the following record next.
What measured IC50 is associated with CCC(C)c1cc([N+](=O)[O-])cc([N+](=O)[O-])c1O (centres undefined) on Photosystem Q(B) protein (Poa annua, UniProt Q9XQA6)? 0.4
